From: ChEMBL document CHEMBL5728630

Give IC50 for every item shown.
Biological target: Complement factor D (Homo sapiens, UniProt P00746)
Sequence (P00746 whole entry): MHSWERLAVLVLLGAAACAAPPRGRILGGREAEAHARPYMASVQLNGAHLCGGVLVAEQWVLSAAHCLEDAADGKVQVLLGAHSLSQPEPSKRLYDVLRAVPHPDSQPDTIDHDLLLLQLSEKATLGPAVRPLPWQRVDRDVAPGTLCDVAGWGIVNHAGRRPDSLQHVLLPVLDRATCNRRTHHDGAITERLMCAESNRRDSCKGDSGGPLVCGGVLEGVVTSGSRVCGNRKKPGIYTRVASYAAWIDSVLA
Test: Factor D Assay: Human Factor D (purified from human serum, Complement Technology, Inc.) at 80 nM final concentration is incubated with test compound at various concentrations for 5 min at room temperature in 50 mM Tris, 1M NaCl, pH 7.5. A synthetic substrate Z-L-Lys-SBz and DTNB (Ellman's reagent) are added to final concentrations of 100 μM each. Absorbance at 405 nm (A405) is recorded at 30 second intervals for 30 min using a microplate spectrophotometer. IC50 values are calculated by nonlinear regression of complement Factor D reaction rates as a function of test compound concentration.

So what does the record say about IC50 for CC(=O)c1nn(CC(=O)N2[C@H](C(=O)Nc3nc(Br)ccc3CN3CCc4ccccc4C3)C[C@@]3(C)C[C@@H]23)c2cnc(-c3cnc(C)nc3)cc12 ?
< 1000 nM

# repeat for CC(=O)c1nn(CC(=O)N2[C@H](C(=O)Nc3nc(Br)ccc3C)C[C@@]3(C)C[C@@H]23)c2ccc(-c3cnc(CN4CCCC(F)(F)C4)nc3)cc12
< 1000 nM

# repeat for CC(=O)c1nn(CC(=O)N2[C@H](C(=O)NCCC3CCCCC3)C[C@@]3(C)C[C@@H]23)c2c(C)cc(-c3cnc(C)nc3)cc12
< 1000 nM

====

Biological target: Complement factor D (Homo sapiens, UniProt P00746)
Test: Factor D Assay: Human Factor D (purified from human serum, Complement Technology, Inc.) at 80 nM final concentration is incubated with test compound at various concentrations for 5 min at room temperature in 50 mM Tris, 1M NaCl, pH 7.5. A synthetic substrate Z-L-Lys-SBz and DTNB (Ellman's reagent) are added to final concentrations of 100 μM each. Absorbance at 405 nm (A405) is recorded at 30 second intervals for 30 min using a microplate spectrophotometer. IC50 values are calculated by nonlinear regression of complement Factor D reaction rates as a function of test compound concentration.
pIC50: −log10 of the molar value.
Give pIC50 for every item shown.

So what does the record say about pIC50 for CC(=O)c1nn(CC(=O)N2[C@H](C(=O)N[C@H](C)c3ccccc3)C[C@@]3(C)C[C@@H]23)c2c(C)cc(-c3cnc(C)nc3)cc12 ?
> 6.00

# repeat for CC(=O)c1nn(CC(=O)N2[C@H](C(=O)Nc3nc(Br)ccc3C)C[C@@]3(CCF)C[C@@H]23)c2cnc(-c3cnc(C)nc3)cc12
> 6.00

# repeat for Cc1ncc(-c2ccc3c(c2)c(C(=O)NC(C)(C)C)nn3CC(=O)N2[C@H](C(=O)Nc3nc(Br)ccc3C)C[C@@]3(C)C[C@@H]23)cn1
< 5.00

====

Give pIC50 for every item shown.
Target: UniProt P00746
Assay: Factor D Assay: Human Factor D (purified from human serum, Complement Technology, Inc.) at 80 nM final concentration is incubated with test compound at various concentrations for 5 min at room temperature in 50 mM Tris, 1M NaCl, pH 7.5. A synthetic substrate Z-L-Lys-SBz and DTNB (Ellman's reagent) are added to final concentrations of 100 μM each. Absorbance at 405 nm (A405) is recorded at 30 second intervals for 30 min using a microplate spectrophotometer. IC50 values are calculated by nonlinear regression of complement Factor D reaction rates as a function of test compound concentration.
pIC50: −log10 of the molar value.

So what does the record say about pIC50 for CC(=O)c1nn(CC(=O)N2[C@H](C(=O)Nc3nc(Br)ccc3C)C[C@@]3(CN4CC(O)C4)C[C@@H]23)c2cnc(-c3cnc(C)nc3)cc12 ?
> 6.00

# repeat for CC(=O)c1nn(CC(=O)N2[C@H](C(=O)Nc3nc(Br)ccc3C)C[C@@]3(CN4CC(C)(C)C4)C[C@@H]23)c2c(C)nc(-c3cnc(C)nc3)cc12
> 6.00

# repeat for CC(=O)c1nn(CC(=O)N2[C@H](C(=O)Nc3nc(Br)ccc3C)C[C@@]3(C)C[C@@H]23)c2ccc(-c3cnc(O)nc3)cc12
> 6.00

====

Biological target: Complement factor D (Homo sapiens, UniProt P00746)
Assay: Factor D Assay: Human Factor D (purified from human serum, Complement Technology, Inc.) at 80 nM final concentration is incubated with test compound at various concentrations for 5 min at room temperature in 50 mM Tris, 1M NaCl, pH 7.5. A synthetic substrate Z-L-Lys-SBz and DTNB (Ellman's reagent) are added to final concentrations of 100 μM each. Absorbance at 405 nm (A405) is recorded at 30 second intervals for 30 min using a microplate spectrophotometer. IC50 values are calculated by nonlinear regression of complement Factor D reaction rates as a function of test compound concentration.
pIC50: −log10 of the molar value.
assay.metric: pIC50

Reported pIC50 for Complement factor D (Homo sapiens, UniProt P00746), given COc1ncc(-c2cc3c(C(C)=O)nn(CC(=O)N4[C@H](C(=O)Nc5nc(Br)ccc5C)C[C@@]5(C)C[C@@H]45)c3c(C)n2)cn1 ?
> 6.00

# repeat for CC(=O)c1nn(CC(=O)N2[C@H](C(=O)Nc3nc(Br)ccc3C)C[C@@]3(CNC(=O)C(F)(F)F)C[C@@H]23)c2c(C)cc(-c3cnc(C)nc3)cc12
> 6.00

# repeat for C#CC(C)(C)NC(=O)c1nn(CC(=O)N2[C@H](C(=O)Nc3nc(Br)ccc3C)C[C@@]3(C)C[C@@H]23)c2ccc(-c3cnc(C)nc3)cc12
< 5.00

# repeat for CC(=O)c1nn(CC(=O)N2[C@H](C(=O)Nc3cccc(Br)n3)C[C@@]3(C)C[C@@H]23)c2ccc(-c3cnc(OC4CS(=O)(=O)C4)nc3)cc12
> 6.00

# repeat for CC(=O)c1nn(CC(=O)N2[C@H](C(=O)Nc3nc(Br)ccc3F)C[C@@]3(C)C[C@@H]23)c2cnc(-c3cnc(C)nc3)cc12
> 6.00

# repeat for CC(=O)c1nn(CC(=O)N2[C@H](C(=O)Nc3cncc(Br)n3)C[C@@]3(C)C[C@@H]23)c2c(C)nc(-c3cnc(C)nc3)cc12
> 6.00

====

Target: Complement factor D (Homo sapiens)
Experiment: Factor D Assay: Human Factor D (purified from human serum, Complement Technology, Inc.) at 80 nM final concentration is incubated with test compound at various concentrations for 5 min at room temperature in 50 mM Tris, 1M NaCl, pH 7.5. A synthetic substrate Z-L-Lys-SBz and DTNB (Ellman's reagent) are added to final concentrations of 100 μM each. Absorbance at 405 nm (A405) is recorded at 30 second intervals for 30 min using a microplate spectrophotometer. IC50 values are calculated by nonlinear regression of complement Factor D reaction rates as a function of test compound concentration.
assay.metric: IC50

So what does the record say about IC50 for C=C[C@@]12C[C@@H](C(=O)Nc3nc(Br)ccc3Cc3nnc(CCCC)o3)N(C(=O)Cn3nc(C(C)=O)c4cc(-c5cnc(C)nc5)ncc43)[C@@H]1C2 ?
< 1000 nM

# repeat for CC(=O)c1nn(CC(=O)N2[C@H](C(=O)Nc3nc(Br)ccc3C)C[C@@]3(CNCc4ccccc4F)C[C@@H]23)c2c(C)cc(-c3cnc(C)nc3)cc12
< 1000 nM

# repeat for CC(=O)c1nn(CC(=O)N2[C@H](C(=O)Nc3nc(C(F)(F)F)ccc3C)C[C@@]3(C)C[C@@H]23)c2cnc(-c3cnc(C)nc3)cc12
< 1000 nM

====

Give pIC50 for every item shown.
Target: Complement factor D (Homo sapiens)
Assay: Factor D Assay: Human Factor D (purified from human serum, Complement Technology, Inc.) at 80 nM final concentration is incubated with test compound at various concentrations for 5 min at room temperature in 50 mM Tris, 1M NaCl, pH 7.5. A synthetic substrate Z-L-Lys-SBz and DTNB (Ellman's reagent) are added to final concentrations of 100 μM each. Absorbance at 405 nm (A405) is recorded at 30 second intervals for 30 min using a microplate spectrophotometer. IC50 values are calculated by nonlinear regression of complement Factor D reaction rates as a function of test compound concentration.
pIC50: −log10 of the molar value.

So what does the record say about pIC50 for CC(=O)c1nn(CC(=O)N2[C@H](C(=O)Nc3nc(Br)ccc3C)C[C@@]3(/C=N/O)C[C@@H]23)c2cnc(-c3cnc(C)nc3)cc12 ?
> 6.00

# repeat for CCCCCNC(=O)[C@@H]1C[C@@]2(C)C[C@H]2N1C(=O)Cn1nc(C(C)=O)c2cc(-c3cnc(C)nc3)ccc21
> 6.00

# repeat for COc1cccc(CNC(=O)[C@@H]2C[C@@]3(C)C[C@H]3N2C(=O)Cn2nc(C(C)=O)c3cc(-c4cnc(C)nc4)cc(C)c32)c1
> 6.00

# repeat for CC(=O)c1nn(CC(=O)N2[C@H](C(=O)Nc3nc(Br)ccc3C)C[C@@]3(CC#N)C[C@@H]23)c2c(C)cc(-c3cnc(C)nc3)cc12
> 6.00

# repeat for CC(=O)c1nn(CC(=O)N2[C@H](C(=O)Nc3nc(Br)ccc3C)C[C@@]3(CNC(=O)C4CCCC4(F)F)C[C@@H]23)c2ccc(-c3cnc(C)nc3)cc12 (stereo partly specified)
> 6.00

# repeat for CC(=O)c1nn(CC(=O)N2[C@@H](C(=O)Nc3nc(Br)ccc3C)C[C@@]3(CC(C)C)C[C@@H]23)c2cnc(-c3cnc(C)nc3)cc12
< 5.00
